Values from PubChem BioAssay

I'd appreciate it if you could supply viability values for the items below.
assay.text: reversal of MRP1-mediated doxorubicin resistance, pilot screen, H69AR cells, doxorubicin co-treatment (AID 601)
measurement.context: H69AR cells, CellTiter-Glo, 72 h; compound alone cytotoxicity; at 10 µM
Give bare numbers, in %.

Worked examples follow.
- compound: "Cc1c(Cl)cnc(NC(=O)COC(=O)C(NC(=O)c2ccco2)C(C)C)c1Cl (stereo not drawn)"
  measure.unit: "%"
  viability: 83.2
- compound: "Cc1cc2c(c(=O)n1CCc1ccccc1)C(C(C)C)C(C#N)=C(N)O2 (stereo not drawn)"
  measure.unit: "%"
  viability: 83.5

Shift focus to the following entry.
Query: # get_value(readout='viability', item= O=C(Oc1ccc(Cl)cc1N1C(=O)CCC1=O)c1ccco1 )
Reply: 90.9

###

assay.text: 384-well plate pilot, post-Golgi transport modulator project, inhibition of yeast transport mutant growth (AID 636)
measurement.context: absorbance 615 nm, about 18 h, stronger effect = higher value
Record form. Attribute: inhibition. Fill in for each entry.
One number for each entry, in %.

// below: answered compounds
- compound: "COc1cc(NC(=O)Cc2nn(C)c(=O)c3ccccc23)cc(OC)c1"
  inhibition, %: -2.24
- compound: "COc1ccc(N2CCN(C(=O)COc3ccc4ccccc4c3)CC2)cc1"
  inhibition, %: -6.35
- compound: "[N-]=[N+]=CC(=O)CC(c1ccccc1)N1C(=O)c2ccccc2C1=O (stereo unspecified)"
  inhibition, %: -0.91
- compound: "Cc1oc2cc(O)ccc2c(=O)c1-c1cnn(-c2ccccc2)c1"
  inhibition, %: -5.13
- compound: "COCc1cc(C)nc(SCC(=O)Nc2cccc(C)c2C)c1C#N"
  inhibition, %: -3.16

Kindly give each listed record's inhibition.
1. O=c1[nH]cnc2c1C1(CCCC1)Cc1ccccc1-2
2. C[N+]1=C2CCCCCN2C(O)(c2ccccc2)C1 (stereo unspecified)

Reply:
[-0.26, -0.79]

// for each compound below, give its inhibition
1. Cc1noc(C)c1S(=O)(=O)N1CCCC(C(=O)NCCc2ccc(Cl)cc2)C1 (stereo unspecified)
2. CCOC(=O)N1CCN(S(=O)(=O)c2ccc(OCC)c(C)c2)CC1
3. NC(=O)C1CCN(CC(=O)N2c3ccccc3CCc3ccccc32)CC1
4. CS(=O)(=O)Nc1ccc(S(=O)(=O)Nc2nccs2)cc1

Reply:
-5.34
-1.95
-5.53
-2.93

Value sought for every listed compound: inhibition.
1. O=S(=O)(NCc1cccnc1)c1cccc2nsnc12
2. O=C(OCC(=O)N1CCc2ccccc21)C1=COCCO1
3. CCN(Cc1cc2cc(OC)ccc2[nH]c1=O)C(=O)c1ccncc1
4. COc1ccc(NC(=O)CN(c2ccc(C)cc2)S(C)(=O)=O)c(OC)c1

Reply:
1. -7.07
2. -4.94
3. -2.13
4. -2.63

// each listed compound needs a value for inhibition
1. Cc1ccc(NC(=O)N2CCC(c3nc4c(nnn4Cc4cccc(Cl)c4)c(=O)[nH]3)CC2)cc1
2. CC1=C(C(N)=O)C(c2cccnc2)n2nc(SCc3ccccc3Cl)nc2N1 (stereo unspecified)
3. COc1cc(NS(=O)(=O)N2CCCC2)cc(OC)c1OC
4. O=C(CCCCCN1C(=O)CCC1=O)NCc1ccccc1
5. COc1ccc2c(c1)C(C)=CC(C)(C)N2C(=O)C(C)N1C(=O)c2ccccc2C1=O (stereo unspecified)

Reply:
[-0.13, -9.05, -7.57, -7.97, -5.71]

Provide inhibition for all items below, preserving their order.
1. CCCCCCNC(=O)Cc1c(O)c2ccccc2[nH]c1=O
2. CCCCC(c1nnnn1CS(=O)(=O)c1ccc(C)cc1)N1CCN(c2ccccc2)CC1 (stereo unspecified)
3. CCn1nnc(-c2ccccc2NC(=O)c2ccc(-n3cnnn3)cc2)n1
4. CCOCCCNC(=O)CCNS(=O)(=O)c1ccc(C)cc1

Reply:
1. -5.27
2. -3.29
3. -0.79
4. -3.03

Items follow; give inhibition for each.
1. Cc1nnc(NCCc2ccccc2)n(N)c1=O
2. CCOC(=O)CN1CC23C=CC(O2)C(C(=O)NC2CCCC2)C3C1=O (stereo unspecified)
3. O=C(O)CCc1ccc(-c2ccc(Br)cc2)n1CC(=O)O
4. Cc1ccc2c(CNCc3ccco3)cc(=O)oc2c1
5. Cc1cc(-c2nc3ncccc3o2)ccc1N
6. CNC(=O)CC(C(=O)O)c1ccc(OC(C)C)cc1 (stereo unspecified)

Reply:
1: -0.4; 2: -0.64; 3: -0.51; 4: -1.07; 5: -2.37; 6: -5.07

For every item below, please supply its inhibition.
1. COc1cc2c(=O)n(Cc3ccccc3)c(=O)n(CC(=O)NCc3ccco3)c2cc1OC
2. O=C(c1cccnc1NCc1ccccc1)N1CCOCC1
3. CC(C)=CCCC(C)N(C=O)C(C)CCC=C(C)C (stereo unspecified)

Reply:
-8
1.08
-0.68

Please state inhibition for every compound in the list that follows.
1. COc1ccccc1-c1cc(C(=O)NCCCn2ccnc2)no1
2. O=c1oc2ccccc2c2nccnc12
3. CC1CCC2C(C1)c1sc(=O)[nH]c1SC2(C)C (stereo unspecified)
4. Fc1ccc(-c2csc3nnc(SCc4cccnc4)n23)cc1

Reply:
-7.03
-0.13
0.9
-4.62

###

assay.text: growth suppression of yeast trafficking mutant, preliminary HTS, modulators of trafficking downstream of Golgi apparatus project, 1536-format plate, OD 615 nm (AID 637)
measurement.context: yeast transport mutant growth, absorbance 615 nm, 18 h; stronger effect = higher value
recorded.metric: inhibition (%)
One number for each entry, in %.

Solved cases below.
- compound: "CCc1nnc(NC(=O)C2CCN(c3nccc(C)n3)CC2)s1"
  inhibition [%]: -2.17
- compound: "Cc1ccccc1N(CC(=O)NCC1CCCO1)C(=O)C1(C)CC(=O)N=C2C=CC=CN21 (stereo unspecified)"
  inhibition [%]: -10.5
- compound: "CC(C)CCNC(=O)NC(=O)COc1ccccc1C#N"
  inhibition [%]: -5.4
- compound: "Cc1ccc(C(=O)CCC2CCCC2=O)cc1 (stereo unspecified)"
  inhibition [%]: -2.67
- compound: "CCNC(=O)Cn1cnc2c1c(=O)n(C)c(=O)n2C"
  inhibition [%]: 5.25

// for each compound below, give its inhibition
1. CCCCOc1cccc(NC(=O)CSc2nccn2C)c1
2. CCOC(=O)C1CCN(c2c(N3CCCC(C(=O)OCC)C3)c(=O)c2=O)CC1 (stereo unspecified)
3. CCCCc1ccc(NC(=O)N[C@H](C(=O)O)C(C)CC)cc1 (stereo partly specified)
4. COc1cccc(NC(=O)CSc2nnc(-c3cc(-c4ccccn4)nc4ccccc34)o2)c1
5. CCOC(=O)N1CCN(S(=O)(=O)c2cc(Cl)c(OC)cc2Cl)CC1

Reply:
[0.5, -2, -2.38, -4.6, -4.92]

Query: Look up inhibition for this compound: CC(=O)Nc1cccc(OCC(O)Cn2cnc3ccccc32)c1 (stereo unspecified)
Reply: 7.14

###

assay.text: SK-BR-3 cell growth inhibitors, pilot screen, 24 h, human (AID 572);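 also: compound exposure lasted between 18 and 24 h rather than exactly 24 h; 100% = carrier-treated control wells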
measurement.context: SK-BR-3 viability, CellTiter-Glo luminescence, at 10 µM, stronger effect = lower value
Assign viability to each entry below.
Give bare numbers, in %.

- chemical.string: "Cc1cccc(-c2cc3nc4c(c(N5CCC6(CC5)OCCO6)n3n2)CCCC4)c1"
  measure.unit: "%"
  measured.value: 80.5
- chemical.string: "COc1ccc(CN(CC(=O)NCc2ccco2)C(=O)CCC(=O)Nc2nccs2)cc1"
  measure.unit: "%"
  measured.value: 96
- chemical.string: "Cc1nc(N2CCC(C)CC2)c2c(C)c(C(=O)O)sc2n1"
  measure.unit: "%"
  measured.value: 100

Kindly review the next compound as well.
Query: Data request, read-out viability, for CCC(=O)N1CCN=C1SCc1ccc(Cl)cc1
Reply: 90

###

For each of the molecules below, state its inhibition.
assay.text: 384-well plate pilot, post-Golgi transport modulator project, inhibition of yeast transport mutant growth (AID 636)
measurement.context: absorbance 615 nm, about 18 h, stronger effect = higher value
Peptide text beside a SMILES is read from it. * marks the point of attachment. Boc = CC(C)(C)OC(=O)*
One number for each entry, in %.

Count: 8. Required value per item: inhibition.
1. CC(NC(=O)OC(C)(C)C)C(=O)N1CCCC1C(=O)NC(Cc1ccccc1)C(N)=O (stereo not drawn) (Boc-Ala-Pro-Phe-NH2; configuration not given here)
2. O=S(=O)(NC1CCCC1)c1ccc(S(=O)(=O)N2CCc3ccccc32)cc1
3. Cc1cc(Oc2ccccc2)nc(-c2ccccc2)n1
4. O=C(OCCCCN1C(=O)c2ccccc2C1=O)c1n[nH]c2ccccc12
5. COc1cc(C2CC(=O)NC3=C2C(=O)CC(C)(C)C3)ccc1O (stereo not drawn)
6. O=C(Nc1nnc(COc2ccc(F)cc2)s1)c1cccs1
7. CCn1c(=O)n(CC(=O)N(C)Cc2ccccc2)c(=O)c2ccccc21
8. COc1ccc(C(=O)NCCSc2ccccn2)cc1

Reply:
1: -1.73; 2: -4.94; 3: -1.17; 4: -7.67; 5: -3.82; 6: -6.93; 7: 1.18; 8: -7.07

Batch of 5 molecules: report inhibition for each.
1. Cc1csc(SCc2nc3sc4c(c3c(=O)[nH]2)CCC4)n1
2. CCOc1ccccc1NC(=O)C1CCCN1C(=O)OCc1ccccc1 (stereo not drawn)
3. CCCCP(=O)(CCCC)Cc1ccccc1O
4. COc1ccc(C(=O)N2CCSC2=S)cc1OC
5. CCn1c(=N)n(CC(O)c2ccco2)c2ccccc21 (stereo not drawn)

Reply:
[-6.16, -1.71, -5.32, -2.21, -4.49]
